- Test System: VEGFR2 (Homo sapiens, UniProt P35968)
- Construct: purchased Upstate
- Sequence (P35968 20-1356): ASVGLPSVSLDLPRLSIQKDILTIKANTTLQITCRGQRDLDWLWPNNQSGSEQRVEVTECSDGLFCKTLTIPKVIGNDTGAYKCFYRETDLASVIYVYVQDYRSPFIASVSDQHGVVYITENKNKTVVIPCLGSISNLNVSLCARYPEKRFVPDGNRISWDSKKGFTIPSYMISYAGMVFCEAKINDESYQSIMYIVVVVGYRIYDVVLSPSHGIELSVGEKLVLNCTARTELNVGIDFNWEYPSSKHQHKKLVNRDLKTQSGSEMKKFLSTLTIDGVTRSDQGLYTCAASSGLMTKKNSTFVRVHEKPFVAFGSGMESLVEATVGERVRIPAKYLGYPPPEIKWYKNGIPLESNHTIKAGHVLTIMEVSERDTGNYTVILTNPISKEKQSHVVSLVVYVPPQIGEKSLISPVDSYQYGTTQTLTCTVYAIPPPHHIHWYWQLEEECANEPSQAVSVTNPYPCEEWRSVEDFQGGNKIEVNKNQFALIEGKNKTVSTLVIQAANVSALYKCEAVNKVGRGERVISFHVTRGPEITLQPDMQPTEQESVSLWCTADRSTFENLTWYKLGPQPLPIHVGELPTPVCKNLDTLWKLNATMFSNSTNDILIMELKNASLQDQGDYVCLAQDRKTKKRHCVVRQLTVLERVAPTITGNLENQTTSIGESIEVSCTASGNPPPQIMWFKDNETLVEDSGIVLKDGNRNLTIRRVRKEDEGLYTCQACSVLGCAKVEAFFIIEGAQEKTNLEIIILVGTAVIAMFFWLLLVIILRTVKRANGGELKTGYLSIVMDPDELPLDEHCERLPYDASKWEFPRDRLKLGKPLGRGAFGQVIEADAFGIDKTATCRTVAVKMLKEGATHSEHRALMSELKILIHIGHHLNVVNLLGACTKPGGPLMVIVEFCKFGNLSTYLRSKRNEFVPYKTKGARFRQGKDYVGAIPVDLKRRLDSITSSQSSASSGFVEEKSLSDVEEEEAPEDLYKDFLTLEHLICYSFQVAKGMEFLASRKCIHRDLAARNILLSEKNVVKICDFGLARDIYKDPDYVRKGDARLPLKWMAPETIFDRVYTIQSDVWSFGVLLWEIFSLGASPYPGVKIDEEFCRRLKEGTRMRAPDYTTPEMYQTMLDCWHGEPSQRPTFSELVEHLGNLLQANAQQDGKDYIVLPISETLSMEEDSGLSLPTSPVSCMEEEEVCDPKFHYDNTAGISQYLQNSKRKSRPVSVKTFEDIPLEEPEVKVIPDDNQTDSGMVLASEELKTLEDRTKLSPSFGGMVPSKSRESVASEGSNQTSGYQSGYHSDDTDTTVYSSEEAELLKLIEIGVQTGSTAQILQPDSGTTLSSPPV
- Assay Protocol: VEGFR2 in vitro kinase inhibitory activity assay
- Format: biochemical
- Condition: read-out: VEGFR2 IC50(μM) or % I
Metric: IC50 (µM)

>>> test_result("CC(C)Oc1cc(NC(=O)NCC(F)(F)F)cc(-c2cnc3cc(-c4nncs4)ccn23)c1.Cl")
0.092

[P] COCc1cc(NC(=O)NCC(F)(F)F)cc(-c2cnc3cc(-c4nnc(C)o4)ccn23)c1
[Q] CC(C)Oc1cc(NC(=O)NCC(F)(F)F)cc(-c2cnc3cc(C(=O)C4CC4)ccn23)c1
[R] CNCc1cc(NC(=O)NCC(F)(F)F)cc(-c2cnc3cc(-c4nnc(C)o4)ccn23)c1
[S] Cc1nnc(-c2ccn3c(-c4cc(CN(C)C)cc(NC(=O)NCC(F)(F)F)c4)cnc3c2)o1
Q: Put the entries in order of IC50, starting with the largest number. I would appreciate it if you listed the labels in the requested order.
A: S, R, P, Q
(S: 2.8 µM, R: 1.7 µM, P: 0.17 µM, Q: 0.074 µM)

###

- Test System: VEGFR2 (Homo sapiens)
- Construct: purchased Upstate
- Assay Protocol: VEGFR2 in vitro kinase inhibitory activity assay
- Type: biochemical
- Condition: read-out: VEGFR2 IC50(μM) or % I
Metric: IC50 (µM)

Here is how some molecules turned out for IC50.
>>> test_result("Cc1nnc(-c2ccn3c(-c4cc(NC(=O)NCC(F)(F)F)cc(OC(C)C)c4)cnc3c2)o1 [Compound F-5]")
0.635
>>> test_result("CC(C)Oc1cc(NC(=O)NCC(F)(F)F)cc(-c2cnc3cc(-c4ncccn4)ccn23)c1 [Compound F-2]")
1.14
>>> test_result("CC(C)Oc1cc(NC(=O)NCC(F)(F)F)cc(-c2cnc3cc(-c4ncc(F)c(N)n4)ccn23)c1 [Compound F-1]")
1.35
>>> test_result("Cc1nnc(-c2ccn3c(-c4cc(NC(=O)NC(O)C(F)(F)F)cc(OC(C)C)c4)cnc3c2)o1 (stereo not drawn) [Compound F-32]")
1.2
>>> test_result("CCNC(=O)Nc1cc(OC(C)C)cc(-c2cnc3cc(-c4nncs4)ccn23)c1 [Compound F-10]")
0.36
>>> test_result("CC(C)Oc1cc(NC(=O)NCC(F)(F)F)cc(-c2cnc3cc(-c4nccc(C(C)(C)CO)n4)ccn23)c1 [Compound F-27]")
1.2
>>> test_result("CCOc1cc(NC(=O)NCC(F)(F)F)cc(-c2cnc3cc(-c4nnc(C)o4)ccn23)c1 [Compound F-15]")
0.34
>>> test_result("Cc1cn(-c2ccn3c(-c4cc(NC(=O)NCC(F)(F)F)cc(OC(C)C)c4)cnc3c2)cn1 [Compound F-28]")
0.077

[P] Cc1nnc(-c2ccn3c(-c4cc(NC(=O)NCC(F)(F)F)cc(OC(C)C)c4)cnc3c2)s1.Cl [Compound F-20]
[Q] O=C(NCC(F)(F)F)Nc1cc(OC2CCC2)cc(-c2cnc3cc(-c4ccnc(C(F)(F)F)n4)ccn23)c1 [Compound F-12]
[R] Cc1nc(N)cc(-c2ccn3c(-c4cc(NC(=O)NCC(F)(F)F)cc(OC(C)C)c4)cnc3c2)n1 [Compound F-4]
[S] CC(C)Oc1cc(NC(=O)NCC(F)(F)F)cc(-c2cnc3cc(OCCCO)ccn23)c1 [Compound F-18]
Q: Kindly order the items shown according to IC50, from the highest value down. Sort and list the labels as requested.
A: Q, S, R, P
(Q: 2.2 µM, S: 0.67 µM, R: 0.1 µM, P: 0.029 µM)
